Cited source for all entries: patent US20120156193A1

Target Of Assay: T1, A beta 1-40 oligomer (synthetic A beta1-40, HCl form, 0.1 mg/ml in PBS, incubated at 37 degrees C for one … (UniProt P05067 672-711))
T1 construct: domain: A beta 1-40; Non-fibrous assembly of many copies of the same peptide; also called A beta oligomer
Experiment Notes: SPR, Biacore 3000, A beta oligomer on CM5 chip, antibody as analyte

{"Binder": "IR-003 antibody (antibody, V domains shown, Mouse monoclonal from a hybridoma (BALB/c); constant regions are not) VH: QVTLKESGPGILQPSQTLSLTCSFSGFSLSTSGMGVSWIRQPSGKGLEWLAHIYWDDDKRYNPSLKSRLTISKDTSSNQVFLKITSVDTADTATYYCARRGEVRRRGYYAMDYWGQGTSVTVSS VL: DVVMTQTPLSLPVSLGDQASISCRSSQSLVHSNGNTYLHWYLQKPGQSPKLLIYKVSNRFSGVPDRFSGSGSGTDFTLKISRVEAEDLGVYFCSQSTHVPLTFGAGTKLELK", "Kd (nM)": 24.5}
{"Binder": "IR-148 antibody (antibody, V domains shown, Mouse monoclonal from a hybridoma) VH: DVQLVESGGGLVQPGGSRKLSCAASGFTFSSFGMHWVRQAPEKGLEWVAYISSGSSTIYYADTVKGRFTISRDNPKNTLFLQMTSLRSEDTAMYYCARDYYGMDYWGQGTSVTVSS VL: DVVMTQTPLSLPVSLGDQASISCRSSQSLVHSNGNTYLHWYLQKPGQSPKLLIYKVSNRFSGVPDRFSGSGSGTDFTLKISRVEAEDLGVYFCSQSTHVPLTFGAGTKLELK", "Kd (nM)": 38.6}
